Experiment: Oral LD 50 determined according to the method of Karber and Behrens on mice
Details: mouse, in vivo, female mice 24 to 26 g, read-out: LD 50 per os
The reader will find reported LD50 values listed item by item below.
Answer with a number only, understood to be in mg/kg.

Query CCOC(=O)C(C)(C)Oc1ccc(Cl)cc1 [Clofibrate, reference compound] yields LD50 of 2300

Per the record, NC(CO)CSCCCCCCCCSCC(N)CO (stereo not shown) [Example 4] has LD50 of 1280

Entry under test: NC(CO)CSCCCCCCSCC(N)CO (stereo not shown) [Example 3] . Its LD50 was 2700

----------
Experiment: Oral LD 50 determined according to the method of Karber and Behrens on mice
Conditions: mouse, in vivo, female mice 24 to 26 g, read-out: LD 50 per os
Flag rule - LD50 less than 2000 mg/kg flags Satisfied; the remaining entries get Not satisfied.

Sample answers from the record:
Consider the compound NC(CO)CSCSCC(N)CO (stereo not shown) [Example 1, 2,8-diamino-4,6-dithia-1,9-nonanediol] . Is its LD50 strictly less than 2000 mg/kg?
Not satisfied

is_below(LD50, 2000 mg/kg) for NC(CO)CSSCC(N)CO (stereo not shown) [Example 6, 2,7-diamino-4,5-dithia-1,8-octanediol] ?
Not satisfied

Dear colleague, could you confirm whether LD50 of NC(CO)CSCCCCSCC(N)CO (stereo not shown) [Example 2] falls below 2000 mg/kg? Thanks.
Not satisfied

New cases:
Below 2000 mg/kg on LD50? Entry NC(CO)CCSCCCCCCSCCC(N)CO (stereo not shown) [Example 12]
Not satisfied

----------
Test: Oral LD 50 determined according to the method of Karber and Behrens on mice
Settings: mouse, in vivo, female mice 24 to 26 g, read-out: LD 50 per os
measured.attribute: LD50 (mg/kg)
Enter your answer as a number in mg/kg; do not include the unit.

Some entries whose results are on file:
For NC(CO)CSCCCCCCCCCCSCC(N)CO (stereo not drawn) the compound record lists LD50 as 1750

NC(CO)CCSCCCCCCCCSCCC(N)CO (stereo not drawn) yielded LD50 of 1400

Continuing:
Entry NC(CO)CCSCCCCCCCCCCSCCC(N)CO (stereo not drawn) — recorded LD50 = 950
